B1: Azoarcus group I ribozyme (parent)
chain: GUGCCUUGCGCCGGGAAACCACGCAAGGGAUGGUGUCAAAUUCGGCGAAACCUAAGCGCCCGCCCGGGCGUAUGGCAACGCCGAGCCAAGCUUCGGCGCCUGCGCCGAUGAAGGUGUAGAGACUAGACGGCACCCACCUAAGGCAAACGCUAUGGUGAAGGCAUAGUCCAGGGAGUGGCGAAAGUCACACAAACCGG

variants of: B1; test: reverse-splicing fitness (ratio to wild type); higher = more active; in vitro selection; Mg2+ level not given
reverse-splicing fitness of 0.01 or higher: YES. Under 0.01: NO.

# example entries with known answers
# VARIANT ANNOTATION, CLASS LABEL
rows = [
    ("C82U A111U A145U C150A C169U", "YES"),
    ("C82U A111U A120C A145G C150A U176C", "YES"),
    ("C82G A111C A120U A145C C169G U176C", "NO"),
]

Hi, just wondering whether C82U A145U C150A C169A U176G shows reverse-splicing fitness of 0.01 or higher.
NO

Does the reported reverse-splicing fitness for C82G A145C C169A U176A fall at or above the 0.01 mark?
YES

Entry source: the RNAGym collection of RNA variant scans (doi:10.1093/molbev/msab373)
